Data credit: patent US7049314B2

Target: UniProtKB P23975
Sequence (P23975 whole entry): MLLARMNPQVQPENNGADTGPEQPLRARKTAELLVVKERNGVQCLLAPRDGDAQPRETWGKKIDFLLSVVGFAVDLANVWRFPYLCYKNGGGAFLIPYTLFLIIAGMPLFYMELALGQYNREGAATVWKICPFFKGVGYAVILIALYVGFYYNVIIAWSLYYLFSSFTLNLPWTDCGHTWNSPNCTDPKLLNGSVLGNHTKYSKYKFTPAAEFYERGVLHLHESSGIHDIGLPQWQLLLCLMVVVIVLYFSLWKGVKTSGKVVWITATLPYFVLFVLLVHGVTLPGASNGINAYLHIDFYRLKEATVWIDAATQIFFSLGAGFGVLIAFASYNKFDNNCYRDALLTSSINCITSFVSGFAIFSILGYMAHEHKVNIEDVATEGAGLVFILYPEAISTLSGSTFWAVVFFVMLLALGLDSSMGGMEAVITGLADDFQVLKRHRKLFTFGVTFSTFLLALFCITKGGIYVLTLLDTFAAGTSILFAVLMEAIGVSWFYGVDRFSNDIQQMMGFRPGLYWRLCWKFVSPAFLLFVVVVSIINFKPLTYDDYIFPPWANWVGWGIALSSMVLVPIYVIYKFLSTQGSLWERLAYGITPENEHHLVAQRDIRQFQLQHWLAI
Assay: Norepinephrine Transporter Binding Assay ([3H]-nisoxetine displacement, hNET cell membranes)
Details: 2.7 nM [3H]-nisoxetine, 1 hr at 4° C., read-out: NE Reuptake (binding Ki)
pKi: −log10 of the molar value.
Below, each of the compounds is paired with its reported pKi value.

Look over these answered cases.
>  <Compound>
CN(C)[C@H]1CC[C@H](c2c[nH]c3ccc(F)cc23)C1 [Compound 52]

>  <Result>
< 6.00

$$$$
>  <Compound>
N#Cc1ccc2[nH]cc(C3CCC(NCCc4ccccc4)C3)c2c1 (centres unmarked) [Compound 9]

>  <Result>
6.00 to 7.00

$$$$
>  <Compound>
N#Cc1ccc2[nH]cc(C3CCC(N4CCCC4)C3)c2c1 (centres unmarked) [Compound 6]

>  <Result>
< 6.00

$$$$

Let me know recorded pKi for N#Cc1ccc2[nH]cc(C3CCC(N4CCOCC4)C3)c2c1 (centres unmarked) [Compound 11] , thanks.
< 6.00

Let me know recorded pKi for CN(C)[C@H]1CC[C@@H](c2c[nH]c3ccc(C#N)cc23)C1 [Compound 50] , thanks.
< 6.00

Let me know recorded pKi for CN(C)C1CCC(c2cn(C)c3ccc(C#N)cc23)C1 (centres unmarked) [Compound 21] , thanks.
< 6.00

Let me know recorded pKi for CN(C)[C@@H]1CC[C@H](c2c[nH]c3ccc(C#N)cc23)C1 [Compound 48] , thanks.
< 6.00

Let me know recorded pKi for Cn1cc(C2CCC(NCc3ccccc3)C2)c2cc(C#N)ccc21 (centres unmarked) [Compound 19] , thanks.
6.00 to 7.00

Let me know recorded pKi for CCNC1CCC(c2c[nH]c3ccc(C#N)cc23)C1 (centres unmarked) [Compound 2] , thanks.
< 6.00

Let me know recorded pKi for Cn1cc(C2CCC(NCCc3ccccc3)C2)c2cc(C#N)ccc21 (centres unmarked) [Compound 20] , thanks.
6.00 to 7.00

Let me know recorded pKi for Cn1cc(C2CCC(N3CCCCC3)C2)c2cc(C#N)ccc21 (centres unmarked) [Compound 25] , thanks.
< 6.00

Let me know recorded pKi for CCN(CC)C1CCC(c2c[nH]c3ccc(F)cc23)C1 (centres unmarked) [Compound 35] , thanks.
< 6.00

Let me know recorded pKi for CCn1cc([C@@H]2CC[C@H](N(C)C)C2)c2cc(C#N)ccc21 [Compound 58] , thanks.
< 6.00

Let me know recorded pKi for CN(C)C1CCC(c2c[nH]c3ccc(F)cc23)C1 (centres unmarked) [Compound 33] , thanks.
< 6.00

Let me know recorded pKi for Cn1cc(C2CCC(N3CCOCC3)C2)c2cc(C#N)ccc21 (centres unmarked) [Compound 26] , thanks.
< 6.00

Let me know recorded pKi for N#Cc1ccc2[nH]cc(C3CCC(N4CCCCC4)C3)c2c1 (centres unmarked) [Compound 14] , thanks.
< 6.00

Let me know recorded pKi for CCCNC1CCC(c2c[nH]c3ccc(C#N)cc23)C1 (centres unmarked) [Compound 16] , thanks.
< 6.00

Let me know recorded pKi for N#Cc1ccc2[nH]cc(C3CCC(N4CCc5ccccc5C4)C3)c2c1 (centres unmarked) [Compound 8] , thanks.
6.00 to 7.00

Let me know recorded pKi for CN(C)[C@@H]1CC[C@H](c2c[nH]c3ccc(F)cc23)C1 [Compound 53] , thanks.
< 6.00

Let me know recorded pKi for CCCNC1CCC(c2cn(C)c3ccc(C#N)cc23)C1 (centres unmarked) [Compound 29] , thanks.
< 6.00
